Data origin: BindingDB's records for doi:10.1016/s0969-8051(99)00080-3

tested.target: Sodium-dependent dopamine transporter (Homo sapiens, UniProt Q01959)
Sequence (Q01959 whole entry): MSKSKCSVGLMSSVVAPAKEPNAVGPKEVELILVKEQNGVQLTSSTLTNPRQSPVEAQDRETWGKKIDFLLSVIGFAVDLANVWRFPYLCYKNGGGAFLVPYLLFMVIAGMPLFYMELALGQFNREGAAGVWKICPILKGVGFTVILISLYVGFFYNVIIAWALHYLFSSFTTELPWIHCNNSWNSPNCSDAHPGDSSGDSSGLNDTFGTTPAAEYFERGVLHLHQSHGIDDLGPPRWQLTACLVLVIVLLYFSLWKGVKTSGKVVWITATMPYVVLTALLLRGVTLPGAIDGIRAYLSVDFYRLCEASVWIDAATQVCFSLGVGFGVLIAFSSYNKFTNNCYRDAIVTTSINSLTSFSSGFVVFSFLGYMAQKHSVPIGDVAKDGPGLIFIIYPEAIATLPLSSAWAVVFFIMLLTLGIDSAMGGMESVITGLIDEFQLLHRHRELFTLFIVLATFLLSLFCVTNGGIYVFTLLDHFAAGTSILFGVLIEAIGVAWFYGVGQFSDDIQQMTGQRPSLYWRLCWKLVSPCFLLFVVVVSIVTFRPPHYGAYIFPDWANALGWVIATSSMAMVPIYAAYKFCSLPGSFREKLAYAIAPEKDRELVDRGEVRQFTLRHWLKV
measured.metric: Ki (nM)
Answers are plain numbers, in nM.

q: Can you look up the measured Ki of COC(=O)C1C(c2ccc(Cl)cc2)CC2CCC1N2CCF (stereo unspecified) for me?
a: 1.53

---

tested.target: Sodium-dependent noradrenaline transporter (Homo sapiens)
Sequence (P23975 whole entry): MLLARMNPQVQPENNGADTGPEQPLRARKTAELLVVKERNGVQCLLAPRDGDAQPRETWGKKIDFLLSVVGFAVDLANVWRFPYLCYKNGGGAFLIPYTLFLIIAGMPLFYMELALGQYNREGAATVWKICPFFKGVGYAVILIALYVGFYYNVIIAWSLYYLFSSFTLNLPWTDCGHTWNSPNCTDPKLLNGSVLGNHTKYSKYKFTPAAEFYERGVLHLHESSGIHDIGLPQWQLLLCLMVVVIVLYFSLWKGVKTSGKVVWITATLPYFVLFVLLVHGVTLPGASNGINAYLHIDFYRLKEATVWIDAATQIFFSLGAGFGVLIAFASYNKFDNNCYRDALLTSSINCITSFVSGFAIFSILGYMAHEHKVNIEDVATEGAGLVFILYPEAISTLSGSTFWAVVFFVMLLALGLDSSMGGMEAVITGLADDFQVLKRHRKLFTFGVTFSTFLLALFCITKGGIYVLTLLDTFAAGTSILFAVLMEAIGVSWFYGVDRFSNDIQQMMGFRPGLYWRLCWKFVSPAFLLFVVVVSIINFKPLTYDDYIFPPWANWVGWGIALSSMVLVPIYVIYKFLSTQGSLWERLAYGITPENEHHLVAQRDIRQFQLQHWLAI
measured.metric: Ki (µM)
Answers are plain numbers, in µM.

q: Observed Ki on Sodium-dependent noradrenaline transporter (Homo sapiens) for COC(=O)C1C(c2ccc(Cl)cc2)CC2CCC1N2CCF (stereo unspecified) [MOLI000038] , please.
a: 0.24
